Data origin, for the record: paper PMC4501006

Experiment: In vivo biodistribution in normal ICR mice
Conditions: i.v., 2 min
Assay endpoint: Biodistribution of radioactivity, kidney (% injected dose per gram)

{"Molecule": "[18F]CCOc1ccc(COc2ccc(I)cc2)cc1 [[^18F]12a]", "Measurement": 11.63}
{"Molecule": "FCCOc1ccc(COc2ccc([125I])cc2)cc1 [[^125I]12a]", "Measurement": 9.16}
{"Molecule": "FCCOc1ccc(OCc2ccc([125I])cc2)cc1 [[^125I]7a]", "Measurement": 12.03}
{"Molecule": "[18F]CCOc1ccc(OCc2ccc(I)cc2)cc1 [[^18F]7a]", "Measurement": 12.70}

====

Assay: In vivo biodistribution in normal ICR mice
Conditions: i.v., 30 min
Assay endpoint: Biodistribution of radioactivity, stomach (% injected dose per organ)

Reference set, count: 2
{"Compound": "[18F]CCOc1ccc(OCc2ccc(I)cc2)cc1 [[^18F]7a]", "Measurement": 1.82}
{"Compound": "FCCOc1ccc(COc2ccc([125I])cc2)cc1 [[^125I]12a]", "Measurement": 2.02}

(a) [18F]CCOc1ccc(COc2ccc(I)cc2)cc1 [[^18F]12a]
(b) FCCOc1ccc(OCc2ccc([125I])cc2)cc1 [[^125I]7a]
Asked: Which entry has a larger number for Biodistribution of radioactivity, stomach, a or b ? Lab note: record the label of whichever item you select.
Given back: b
(b: 4.38 % injected dose per organ, a: 2.09 % injected dose per organ)

====

Assay: In vivo biodistribution in normal ICR mice
Settings: i.v., 2 min
Assay endpoint: Biodistribution of radioactivity, stomach (% injected dose per organ)

{"Compound": "[18F]CCOc1ccc(COc2ccc(I)cc2)cc1 [[^18F]12a]", "Measurement": 1.70}
{"Compound": "[18F]CCOc1ccc(OCc2ccc(I)cc2)cc1 [[^18F]7a]", "Measurement": 1.55}
{"Compound": "FCCOc1ccc(OCc2ccc([125I])cc2)cc1 [[^125I]7a]", "Measurement": 1.32}
{"Compound": "FCCOc1ccc(COc2ccc([125I])cc2)cc1 [[^125I]12a]", "Measurement": 1.30}

====

Assay: In vivo metabolism (biostability), HPLC analysis of organ samples
Settings: ICR mice, i.v., post-injection time 10 min
Assay endpoint: Percentage of Parent tracer, Plasma (%)

{"Compound": "FCCOc1ccc(COc2ccc([125I])cc2)cc1 [[^125I]12a]", "Percentage of Parent tracer, Plasma (%)": 29.6}
{"Compound": "FCCOc1ccc(OCc2ccc([125I])cc2)cc1 [[^125I]7a]", "Percentage of Parent tracer, Plasma (%)": 41.3}

(P) [18F]CCOc1ccc(COc2ccc(I)cc2)cc1 [[^18F]12a]
(Q) [18F]CCOc1ccc(OCc2ccc(I)cc2)cc1 [[^18F]7a]
Asked: # query: argmin of Percentage of Parent tracer, Plasma over P and Q Lab note: record the label of whichever item you select.
Given back: Q

====

Test: In vivo biodistribution in normal ICR mice
Conditions: i.v., 30 min
Assay endpoint: Biodistribution of radioactivity, lung (% injected dose per gram)

Reference set, count: 2
{"Compound": "[18F]CCOc1ccc(OCc2ccc(I)cc2)cc1 [[^18F]7a]", "Biodistribution of radioactivity, lung [% injected dose per gram]": 4.21}
{"Compound": "FCCOc1ccc(OCc2ccc([125I])cc2)cc1 [[^125I]7a]", "Biodistribution of radioactivity, lung [% injected dose per gram]": 4.25}

(P) FCCOc1ccc(COc2ccc([125I])cc2)cc1 [[^125I]12a]
(Q) [18F]CCOc1ccc(COc2ccc(I)cc2)cc1 [[^18F]12a]
Asked: # query: argmin of Biodistribution of radioactivity, lung over P and Q Lab note: record the label of whichever item you select.
Given back: P

====

Assay: In vivo metabolism (biostability), HPLC analysis of organ samples
Conditions: ICR mice, i.v., post-injection time 2 min
Assay endpoint: Percentage of Parent tracer, Feces (%)

{"Molecule": "[18F]CCOc1ccc(OCc2ccc(I)cc2)cc1 [[^18F]7a]", "Percentage of Parent tracer, Feces [%]": 53.6}

(I) FCCOc1ccc(COc2ccc([125I])cc2)cc1 [[^125I]12a]
(II) [18F]CCOc1ccc(COc2ccc(I)cc2)cc1 [[^18F]12a]
(III) FCCOc1ccc(OCc2ccc([125I])cc2)cc1 [[^125I]7a]
Asked: Ascending by Percentage of Parent tracer, Feces, please: list the molecules accordingly. Your answer should be the labels, listed in the requested order.
Given back: I, III, II
(I: 0.0%, III: 22.9%, II: 46.7%)

====

Experiment: In vivo metabolism (biostability), HPLC analysis of organ samples
Conditions: ICR mice, i.v., post-injection time 60 min
Assay endpoint: Percentage of Parent tracer, Liver (%)

{"Compound": "FCCOc1ccc(COc2ccc([125I])cc2)cc1 [[^125I]12a]", "Percentage of Parent tracer, Liver / %": 3.8}
{"Compound": "[18F]CCOc1ccc(OCc2ccc(I)cc2)cc1 [[^18F]7a]", "Percentage of Parent tracer, Liver / %": 23.4}

(I) FCCOc1ccc(OCc2ccc([125I])cc2)cc1 [[^125I]7a]
(II) [18F]CCOc1ccc(COc2ccc(I)cc2)cc1 [[^18F]12a]
Asked: Which entry has a larger number for Percentage of Parent tracer, Liver, I or II ? Lab note: record the label of whichever item you select.
Given back: II
(II: 21.7%, I: 3.3%)

====

Assay: In vivo metabolism (biostability), HPLC analysis of organ samples
Details: ICR mice, i.v., post-injection time 10 min
Assay endpoint: Percentage of Parent tracer, Feces (%)

{"Compound": "FCCOc1ccc(OCc2ccc([125I])cc2)cc1 [[^125I]7a]", "Percentage of Parent tracer, Feces / %": 58.8}

(A) [18F]CCOc1ccc(COc2ccc(I)cc2)cc1 [[^18F]12a]
(B) FCCOc1ccc(COc2ccc([125I])cc2)cc1 [[^125I]12a]
Asked: # query: argmin of Percentage of Parent tracer, Feces over A and B Lab note: record the label of whichever item you select.
Given back: B

====

Assay: In vivo biodistribution in normal ICR mice
Conditions: i.v., 10 min
Assay endpoint: Biodistribution of radioactivity, brain (% injected dose per gram)

Reference set, count: 2
{"Molecule": "FCCOc1ccc(COc2ccc([125I])cc2)cc1 [[^125I]12a]", "Measurement": 2.28}
{"Molecule": "[18F]CCOc1ccc(COc2ccc(I)cc2)cc1 [[^18F]12a]", "Measurement": 5.73}

(A) FCCOc1ccc(OCc2ccc([125I])cc2)cc1 [[^125I]7a]
(B) [18F]CCOc1ccc(OCc2ccc(I)cc2)cc1 [[^18F]7a]
Asked: # query: argmin of Biodistribution of radioactivity, brain over A and B Lab note: record the label of whichever item you select.
Given back: A
(A: 2.73 % injected dose per gram, B: 4.78 % injected dose per gram)

====

Experiment: In vivo metabolism (biostability), HPLC analysis of organ samples
Conditions: ICR mice, i.v., post-injection time 2 min
Assay endpoint: Percentage of Parent tracer, Plasma (%)

Reference set, count: 2
{"Molecule": "[18F]CCOc1ccc(COc2ccc(I)cc2)cc1 [[^18F]12a]", "Percentage of Parent tracer, Plasma (%)": 73.7}
{"Molecule": "FCCOc1ccc(OCc2ccc([125I])cc2)cc1 [[^125I]7a]", "Percentage of Parent tracer, Plasma (%)": 85.2}

(a) FCCOc1ccc(COc2ccc([125I])cc2)cc1 [[^125I]12a]
(b) [18F]CCOc1ccc(OCc2ccc(I)cc2)cc1 [[^18F]7a]
Asked: # query: argmin of Percentage of Parent tracer, Plasma over a and b Lab note: record the label of whichever item you select.
Given back: b

====

Test: In vivo biodistribution in normal ICR mice
Details: i.v., 30 min
Assay endpoint: Biodistribution of radioactivity, liver (% injected dose per gram)

{"Compound": "[18F]CCOc1ccc(OCc2ccc(I)cc2)cc1 [[^18F]7a]", "Measurement": 4.31}
{"Compound": "FCCOc1ccc(OCc2ccc([125I])cc2)cc1 [[^125I]7a]", "Measurement": 12.35}

(P) FCCOc1ccc(COc2ccc([125I])cc2)cc1 [[^125I]12a]
(Q) [18F]CCOc1ccc(COc2ccc(I)cc2)cc1 [[^18F]12a]
Asked: # query: argmin of Biodistribution of radioactivity, liver over P and Q Lab note: record the label of whichever item you select.
Given back: Q
(Q: 4.84 % injected dose per gram, P: 8.68 % injected dose per gram)

====

Experiment: In vivo metabolism (biostability), HPLC analysis of organ samples
Details: ICR mice, i.v., post-injection time 10 min
Assay endpoint: Percentage of Parent tracer, Urine (%)

Reference set, count: 2
{"Compound": "FCCOc1ccc(COc2ccc([125I])cc2)cc1 [[^125I]12a]", "Unit of measurement": "%", "Measurement": 0.0}
{"Compound": "[18F]CCOc1ccc(COc2ccc(I)cc2)cc1 [[^18F]12a]", "Unit of measurement": "%", "Measurement": 0.0}

(a) FCCOc1ccc(OCc2ccc([125I])cc2)cc1 [[^125I]7a]
(b) [18F]CCOc1ccc(OCc2ccc(I)cc2)cc1 [[^18F]7a]
Asked: Which entry has a larger number for Percentage of Parent tracer, Urine, a or b ? Lab note: record the label of whichever item you select.
Given back: a
